These entries and their values trace back to ChEMBL document CHEMBL1158512.

# Tested on: Streptococcus sanguinis
# assay-comment: Antimicrobial activity against Streptococcus sanguinis NCTC 9811 assessed as total bacterial adherence inhibition
# Type: functional
metric-name: Activity (µg/mL)
Lab book: enter the figure in µg/mL, no units written.

These solved cases illustrate the format of a correct answer.
Oc1ccc([C@H]2c3c(O)cc(O)cc3[C@H]3c4c(cc(O)c5c4[C@H]2[C@@H](c2ccc(O)cc2)[C@@H]5c2cc(O)cc(O)c2)O[C@@H]3c2ccc(O)cc2)cc1 | 50
Oc1cc(O)cc(/C=C/c2ccc(O)c(O)c2)c1 | 50
Oc1ccc(/C=C/c2cc(O)cc(O)c2)cc1 | 100
Oc1ccc(/C=C/c2cc(O)cc3c2[C@H](c2cc(O)cc(O)c2)[C@@H](c2ccc(O)cc2)O3)cc1 | 50

Form field Activity, entry `CC[C@H]1OC(=O)[C@H](C)[C@@H](O[C@H]2C[C@@](C)(OC)[C@@H](O)[C@H](C)O2)[C@H](C)[C@@H](O[C@@H]2O[C@H](C)C[C@H](N(C)C)[C@H]2O)[C@](C)(O)C[C@@H](C)C(=O)[C@H](C)[C@@H](O)[C@]1(C)O` : 25

====

Entries and their zone of inhibition at 100 µg/mL values follow.
# Tested on: Streptococcus sanguinis
# assay-comment: Antimicrobial activity against Streptococcus sanguinis NCTC 9811 at 100 ug/ml after 20 hrs by disk diffusion method
# Assay type: functional
# experimental-conditions: NCTC 9811, 20 h, read-out: IZ

These solved cases illustrate the format of a correct answer.
Oc1ccc(/C=C/c2cc(O)cc(O)c2)cc1 | < 11 mm
Oc1ccc(/C=C/c2cc(O)cc3c2[C@H](c2cc(O)cc(O)c2)[C@@H](c2ccc(O)cc2)O3)cc1 | 20 mm
Oc1ccc([C@H]2c3c(O)cc(O)cc3[C@H]3c4c(cc(O)c5c4[C@H]2[C@@H](c2ccc(O)cc2)[C@@H]5c2cc(O)cc(O)c2)O[C@@H]3c2ccc(O)cc2)cc1 | < 15 mm

Form field zone of inhibition at 100 µg/mL, entry `Oc1cc(O)cc(/C=C/c2ccc(O)c(O)c2)c1` : < 15 mm

====

Entries and their zone of inhibition at 600 µg/mL values follow.
# System: Streptococcus sanguinis
# assay-comment: Antimicrobial activity against Streptococcus sanguinis NCTC 9811 at 600 ug/ml after 20 hrs by disk diffusion method
# Assay type: functional
# experimental-conditions: NCTC 9811, 20 h, read-out: IZ
Lab book: enter the figure in mm, no units written.

Oc1ccc(/C=C/c2cc(O)cc(O)c2)cc1 | 20

Pending molecule:
Assay Streptococcus sanguinis, sample `Oc1ccc(/C=C/c2cc(O)cc3c2[C@H](c2cc(O)cc(O)c2)[C@@H](c2ccc(O)cc2)O3)cc1` , zone of inhibition at 600 µg/mL read: 20

====

Entries and their zone of inhibition at 600 µg/mL values follow.
# Test system: Streptococcus sanguinis
# assay-comment: Antimicrobial activity against Streptococcus sanguinis NCTC 9811 at 600 ug/ml after 20 hrs by disk diffusion method
# Format: functional
# experimental-conditions: NCTC 9811, 20 h, read-out: IZ

These solved cases illustrate the format of a correct answer.
Oc1cc(O)cc(/C=C/c2ccc(O)c(O)c2)c1 [PICEATANNOL] | > 20 mm
Oc1ccc([C@H]2c3c(O)cc(O)cc3[C@H]3c4c(cc(O)c5c4[C@H]2[C@@H](c2ccc(O)cc2)[C@@H]5c2cc(O)cc(O)c2)O[C@@H]3c2ccc(O)cc2)cc1 [AMURESIN G] | < 15 mm

Pending compound:
Assay Streptococcus sanguinis, sample Oc1ccc(C2[C@H]3c4cc(O)cc(O)c4[C@@H](c4ccc(O)cc4)[C@@H]2c2cc(O)cc(O)c23)cc1 (stereo partly drawn) , zone of inhibition at 600 µg/mL read: < 15 mm
